target: MMP-1 (Homo sapiens, UniProt P03956); test: MMP-1 inhibitory action (Type I collagen Activity Measurement kit, FITC-labeled collagen type I); format: biochemical; conditions: Experimental Example 2; read-out: IC50 MMP1
Sequence (P03956 100-469, species assumed): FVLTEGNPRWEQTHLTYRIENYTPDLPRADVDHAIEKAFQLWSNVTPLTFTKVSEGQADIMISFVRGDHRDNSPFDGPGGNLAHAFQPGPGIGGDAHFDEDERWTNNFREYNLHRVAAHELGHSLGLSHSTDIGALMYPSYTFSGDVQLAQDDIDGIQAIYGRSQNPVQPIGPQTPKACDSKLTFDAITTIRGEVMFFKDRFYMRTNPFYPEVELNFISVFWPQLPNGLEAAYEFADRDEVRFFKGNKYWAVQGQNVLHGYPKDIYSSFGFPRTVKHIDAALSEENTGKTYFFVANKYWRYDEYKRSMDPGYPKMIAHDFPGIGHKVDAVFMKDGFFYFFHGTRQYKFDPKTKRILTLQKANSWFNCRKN
pIC50: −log10 of the molar value.
Measured pIC50, listed per entry for reference.

C[C@]1(c2ccccc2)C[C@@]1(NS(=O)(=O)c1ccc(-c2ccc3c(c2)OCO3)s1)C(=O)O [Example 2-449] | ≤ 6.00
CN1CCN(C(=O)OCC2(c3ccccc3)CC2(NS(=O)(=O)c2ccc(-c3cc(C(F)(F)F)on3)s2)C(=O)O)CC1 (stereo not shown) [Example 2-334] | ≤ 6.00
CC1(c2cccnc2)CC1(NS(=O)(=O)c1ccc(-c2cc(C(F)(F)F)on2)s1)C(=O)O (stereo not shown) [Example 2-617] | ≤ 6.00

API: the following record is the query input.
# compound CC1[C@H](c2ccccc2)[C@]1(NS(=O)(=O)c1ccc(-c2ccc(Cl)cn2)s1)C(=O)O (stereo partly shown) [Example 2-366] ; its pIC50 = > 6.00

###

Target: MMP-1 (Homo sapiens, UniProt P03956)
Assay: MMP-1 inhibitory action (Type I collagen Activity Measurement kit, FITC-labeled collagen type I)
Type: biochemical
Conditions: Experimental Example 2; read-out: IC50 MMP1
Experimental: For MMP-1 Assay, Type I collagen Activity Measurement kit (YAGAI YU-72013) modified to a 96-well plate format was used. The principle of the kit is based on the property of collagen that becomes soluble in ethanol after being cleaved by MMP-1. […] The reaction was terminated by addition of Tris-HCl buffer containing ethanol. […] The collagenase activity of MMP-1 was determined by measuring FITC fluorescence intensity (excitation wavelength 485 nm, emission wavelength 530 nm) of each well. […]
reported property: IC50

The cases that follow already have their IC50 on record.
COCCCC1(c2ccccc2)CC1(NS(=O)(=O)c1ccc(-c2ccc(Cl)cc2)s1)C(=O)O (centres unmarked) | ≥ 1000 nM
CC(C)CC(=O)N1CCN(S(=O)(=O)N[C@@]2(C(=O)O)C[C@@H]2c2ccccc2)CC1 | ≥ 1000 nM
COc1cccc(C2(C)CC2(NS(=O)(=O)c2ccc(-c3cc(C(F)(F)F)on3)s2)C(=O)O)c1 (centres unmarked) | < 1000 nM
CC1[C@H](c2ccccc2)[C@]1(NS(=O)(=O)N1CCCN(c2ccc(F)cc2)CC1)C(=O)O (some centres unmarked) | ≥ 1000 nM
CC1[C@H](c2ccccc2)[C@]1(NS(=O)(=O)c1ccc(-n2cc(Cl)cn2)nc1)C(=O)O (some centres unmarked) | ≥ 1000 nM

Attention now shifts to the item below.
Short answer for COCC(=O)NCC1(c2ccccc2)CC1(NS(=O)(=O)c1ccc(-c2ccc(Cl)cc2)s1)C(=O)O (centres unmarked) : IC50 was ≥ 10000 nM

###

Quick list: pIC50 per entry.
Biological target: aggrecanase-1 (Homo sapiens)
Sequence (O75173 213-837): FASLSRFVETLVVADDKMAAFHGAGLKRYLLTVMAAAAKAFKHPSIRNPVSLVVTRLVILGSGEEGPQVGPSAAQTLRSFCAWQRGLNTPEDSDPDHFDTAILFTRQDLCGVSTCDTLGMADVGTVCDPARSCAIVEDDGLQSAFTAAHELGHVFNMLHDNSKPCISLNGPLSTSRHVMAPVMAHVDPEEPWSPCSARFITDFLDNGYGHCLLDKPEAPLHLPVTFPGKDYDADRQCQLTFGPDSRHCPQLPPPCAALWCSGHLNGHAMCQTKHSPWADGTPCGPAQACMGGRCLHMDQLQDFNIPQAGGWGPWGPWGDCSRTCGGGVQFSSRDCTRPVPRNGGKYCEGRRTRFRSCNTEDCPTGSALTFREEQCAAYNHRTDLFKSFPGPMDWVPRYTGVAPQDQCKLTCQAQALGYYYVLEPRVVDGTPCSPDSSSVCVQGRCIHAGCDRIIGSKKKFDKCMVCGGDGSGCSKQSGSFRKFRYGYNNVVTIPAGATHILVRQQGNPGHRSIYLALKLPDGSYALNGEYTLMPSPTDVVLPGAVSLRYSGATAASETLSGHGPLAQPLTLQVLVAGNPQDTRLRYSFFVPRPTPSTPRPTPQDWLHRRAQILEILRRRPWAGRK
Assay: Aggrecanase-1 inhibitory action (Particle Assay, GAG release from aggrecan-containing polyacrylamide particles)
Assay type: biochemical
Settings: Experimental Example 1; read-out: IC50 AG1
pIC50: −log10 of the molar value.

In plain terms, O=C(NO)C1(NS(=O)(=O)c2ccc(OCc3ccc(Cl)cc3Cl)cc2)C2CCCc3ccccc3C21 (centres unmarked) has a documented pIC50 of > 6.00

The compound `C[C@]1(c2ccccc2)C[C@@]1(NS(=O)(=O)c1ccc(-c2ccc(F)c(F)c2)s1)C(=O)O` showed pIC50 equal to > 7.00

Documented pIC50 of `CN(C)c1cc(-c2ccc(S(=O)(=O)N[C@@]3(C(=O)O)C[C@]3(C)c3ccccc3)s2)no1` : > 6.00

Record `COc1cnn(-c2ccc(S(=O)(=O)N[C@@]3(C(=O)O)C[C@@H]3c3ccccc3)cn2)c1` . Reported pIC50: ≤ 6.00

Value of pIC50 reported for the compound CC1[C@H](c2ccccc2)[C@]1(NS(=O)(=O)c1ccc(-c2ccc(Cl)c(CO)c2)s1)C(=O)O (some centres unmarked) is > 7.00

get_value(item= CC(=O)N1CCC2C(c3ccccc31)C2(NS(=O)(=O)c1ccc(-c2ccc(Cl)cc2)s1)C(=O)O (centres unmarked) , readout=pIC50) returns > 7.00

###

target: Recombinant Human MMP-13 (Homo sapiens); construct: purchased R&D systems 511-MM; assay: MMP-13 inhibitory activity (MMP-13 specific fluorescent substrate with quencher); type: biochemical; details: Recombinant Human MMP-13, fluorescent substrate, 25° C. for 1 h; read-out: IC50 MMP13 (Experimental Example 3)
reported property: IC50

Illustrative cases are given below, each with its answer.
O=C(O)C1(NS(=O)(=O)N2CC=C(c3ccccc3)CC2)CC1c1ccccc1 (stereo not drawn) [Example 2-148] | < 1000 nM
O=C(CN1CCOCC1)Nc1cccc(C2CC2(NS(=O)(=O)c2ccc(-c3ccc(Cl)cc3)s2)C(=O)O)c1 (stereo not drawn) [Example 2-261] | < 1000 nM
Cc1nc(-c2ccc(S(=O)(=O)N[C@@]3(C(=O)O)C[C@@H]3c3ccccc3)s2)cs1 [Example 2-50] | ≥ 1000 nM
O=C(NO)[C@]1(NS(=O)(=O)c2ccc(OCc3ccc(Cl)cc3Cl)cc2)[C@@H]2c3ccccc3C[C@@H]21 (relative stereo) [Example 2-13] | < 100 nM
O=C(NO)C1(NS(=O)(=O)c2ccc(OCc3ccc(Cl)cc3Cl)cc2)CC1c1ccccc1 (stereo not drawn) [Example 1-2] | < 100 nM
CCNC(=O)c1ccc(S(=O)(=O)NC2(C(=O)O)CC2c2ccccc2)s1 (stereo not drawn) [Example 2-104] | ≥ 10000 nM
O=C(O)C1(NS(=O)(=O)c2ccc(-c3ccc(Cl)c(Cl)c3)s2)CC1c1ccccc1 (stereo not drawn) [Example 2-18] | < 1000 nM
O=C(O)C1(NS(=O)(=O)c2ccc(-c3ccc(Cl)cc3)s2)CC1C1CCC1 (stereo not drawn) [Example 2-58] | < 1000 nM
O=C(CCc1cccc(C2CC2(NS(=O)(=O)c2ccc(-c3ccc(Cl)cc3)s2)C(=O)O)c1)N1CCOCC1 (stereo not drawn) [Example 2-209] | < 100 nM
O=C(O)[C@]1(NS(=O)(=O)c2ccc(-c3noc(C(F)(F)F)n3)s2)C[C@@H]1c1ccccc1 [Example 2-44] | ≥ 1000 nM

Recorded result, C[C@]1(c2ccccc2)C[C@@]1(NS(=O)(=O)c1ccc(-c2cc(CF)sn2)s1)C(=O)O [Example 2-121] , IC50: < 100 nM

Value of measured IC50 for the entry O=C(O)C1(NS(=O)(=O)c2ccc(-c3ccc(Cl)cc3)s2)CC1c1ccccc1 (stereo not drawn) [Example 1-69] : < 1000 nM

Notebook: CC1[C@H](c2ccccc2)[C@]1(NS(=O)(=O)c1ccc(-c2ccc(Cl)cc2)s1)C(=O)O (stereo partly drawn) [Example 2-262] , IC50 read as < 100 nM

Reported IC50 ( O=C(O)C1(NS(=O)(=O)c2ccc3c(c2)oc2cc(Cl)ccc23)CC1c1ccccc1 (stereo not drawn) [Example 1-122] ) = < 100 nM

Note to self: IC50 recorded for COCCN(C)C(=O)c1ccccc1C1CC1(NS(=O)(=O)c1ccc(-c2ccc(Cl)cc2)s1)C(=O)O (stereo not drawn) [Example 2-71] was < 1000 nM

###

Biological target: UniProt:O75173
Sequence (O75173 213-837): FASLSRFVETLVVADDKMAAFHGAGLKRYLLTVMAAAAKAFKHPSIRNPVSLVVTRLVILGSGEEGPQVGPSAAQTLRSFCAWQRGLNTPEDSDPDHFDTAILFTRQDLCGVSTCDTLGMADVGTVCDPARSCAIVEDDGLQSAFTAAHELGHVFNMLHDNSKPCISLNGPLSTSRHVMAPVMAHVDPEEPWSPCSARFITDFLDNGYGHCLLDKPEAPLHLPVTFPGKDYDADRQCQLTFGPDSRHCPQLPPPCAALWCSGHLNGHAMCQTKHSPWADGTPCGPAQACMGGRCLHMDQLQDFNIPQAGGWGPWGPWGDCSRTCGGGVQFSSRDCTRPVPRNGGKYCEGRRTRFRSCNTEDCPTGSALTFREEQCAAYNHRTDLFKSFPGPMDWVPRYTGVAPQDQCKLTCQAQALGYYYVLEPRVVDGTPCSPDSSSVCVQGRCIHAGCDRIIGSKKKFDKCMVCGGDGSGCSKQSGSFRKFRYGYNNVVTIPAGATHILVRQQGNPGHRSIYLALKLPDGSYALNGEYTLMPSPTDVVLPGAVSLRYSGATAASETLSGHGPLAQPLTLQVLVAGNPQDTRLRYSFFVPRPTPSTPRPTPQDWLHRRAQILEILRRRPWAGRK
Experiment: Aggrecanase-1 inhibitory action (Particle Assay, GAG release from aggrecan-containing polyacrylamide particles)
Format: biochemical
Settings: aggrecanase-1 inhibitory action; read-out: IC50 AG1 (Experimental Example 1)
pIC50: −log10 of the molar value.
Attribute: pIC50

O=C(O)C1(NS(=O)(=O)c2ccc(-c3ccc(C(F)(F)F)cc3)s2)CC1c1ccccc1 (stereo not drawn) [Example 2-19] | > 6.00
O=C(O)[C@]1(NS(=O)(=O)c2ccc(-c3cc4ccccn4c3)s2)C[C@@H]1c1ccccc1 [Example 2-135] | ≤ 6.00
COC(=O)CCc1cccc(C2CC2(NS(=O)(=O)c2ccc(-c3ccc(Cl)cc3)s2)C(=O)O)c1 (stereo not drawn) [Example 2-208] | > 7.00
O=C(OCCCc1ccccc1C1CC1(NS(=O)(=O)c1ccc(-c2cc(C(F)(F)F)on2)s1)C(=O)O)N1CCC[C@H]1CO (stereo partly drawn) [Example 2-254] | > 7.00
O=C(O)[C@]1(NS(=O)(=O)c2ccc(-c3ccc(Cl)cc3)s2)C[C@@H]1c1cccc(Br)c1 [Example 2-136] | > 6.00

// recorded pIC50 for O=C(NCCO)c1ccccc1C1CC1(NS(=O)(=O)c1ccc(-c2ccc(Cl)cc2)s1)C(=O)O (stereo not drawn) [Example 2-72] : > 7.00

O=C(Cc1ccccc1C1CC1(NS(=O)(=O)c1ccc(-c2cc(C(F)(F)F)on2)s1)C(=O)O)N1CCOCC1 (stereo not drawn) [Example 2-243] yielded pIC50 of > 6.00
